Readings of EC50 for the listed compounds
# Tested on: S. cerevisiae aged cells, superoxide DHE fluorescence, 7 d
# Method: inhibitors of age-related superoxide in yeast, dose response, powder samples, confirmation (AID 504931)

q: Name the recorded EC50 of the compound listed here: CC(C)(C)n1nc(-c2ccc(F)cc2)c2c(N)ncnc21
a: 17.2 µM

q: Name the recorded EC50 of the compound listed here: Cc1ccccc1NC(=O)c1cccc2nc3ccccc3nc12
a: 5.45 µM

q: Name the recorded EC50 of the compound listed here: COc1ccc2c(c1)c1nnc(SC)nc1n2C
a: 1.57 µM

q: Name the recorded EC50 of the compound listed here: CCN(CC)c1ccc2nc3ccc(N)cc3[n+](-c3ccccc3)c2c1
a: 26.4 µM

q: Name the recorded EC50 of the compound listed here: CC(=O)Nc1ccc2nc3ccccc3nc2c1
a: 0.33 µM

q: Name the recorded EC50 of the compound listed here: COc1cccc2nc3cc(C)c(C)cc3nc12
a: 0.9 µM

Origin of measurements: PubChem BioAssay AID504931
